These entries and their values trace back to the supplement of paper PMC5908809.

What drug sensitivity score was measured for each of the following?
- Test system: SNK-6 (IL-2 2.5 ng/mL)
- test.method.notes: drug sensitivity score (DSS) (DSS units); higher = more sensitive; extreme values may be limits of the assay
- condition.details: 72 h
Kindly provide the number alone.

// query Hello, I am looking for reported drug sensitivity score with SNK-6 (IL-2 2.5 ng/mL) for CCN1CCN(Cc2ccc(-c3cc4c(N[C@H](C)c5ccccc5)ncnc4[nH]3)cc2)CC1 [NVP-AEE788] (max concentration tested 2500 nM) . Could you help?
// result 0

// query Hello, I am looking for reported drug sensitivity score with SNK-6 (IL-2 2.5 ng/mL) for S=P(N1CC1)(N1CC1)N1CC1 [Thio-TEPA] (max concentration tested 50000 nM) . Could you help?
// result 1.69

// query Hello, I am looking for reported drug sensitivity score with SNK-6 (IL-2 2.5 ng/mL) for O=C(O)CC1CC(c2ccccc2)=NO1 (centres undefined) [VGX-1027] (max concentration tested 10000 nM) . Could you help?
// result 0

// query Hello, I am looking for reported drug sensitivity score with SNK-6 (IL-2 2.5 ng/mL) for O=C(O)c1ccc(Nc2ncc3c(n2)-c2ccc(Cl)cc2C(c2c(F)cccc2F)=NC3)cc1 [MLN-8054] (max concentration tested 10000 nM) . Could you help?
// result 21.2

// query Hello, I am looking for reported drug sensitivity score with SNK-6 (IL-2 2.5 ng/mL) for Cc1cc(Nc2cc(CN3CCOCC3)c3nc(C)c(Cc4ccc(Cl)cc4F)n3n2)n[nH]1 [Gandotinib] (max concentration tested 10000 nM) . Could you help?
// result 18.8

// query Hello, I am looking for reported drug sensitivity score with SNK-6 (IL-2 2.5 ng/mL) for O=C(/C=C\n1cnc(-c2cc(C(F)(F)F)cc(C(F)(F)F)c2)n1)NNc1cnccn1 [Selinexor] (max concentration tested 10000 nM) . Could you help?
// result 25.1

// query Hello, I am looking for reported drug sensitivity score with SNK-6 (IL-2 2.5 ng/mL) for O=c1cc(N2CCOCC2)oc2c(-c3ccccc3)cccc12 (max concentration tested 100000 nM) . Could you help?
// result 13.6

// query Hello, I am looking for reported drug sensitivity score with SNK-6 (IL-2 2.5 ng/mL) for COc1ncc(-c2ccc3nccc(-c4ccnnc4)c3c2)cc1NS(=O)(=O)c1ccc(F)cc1F [Omipalisib] (max concentration tested 1000 nM) . Could you help?
// result 7.24

// query Hello, I am looking for reported drug sensitivity score with SNK-6 (IL-2 2.5 ng/mL) for CN(c1ncccc1CNc1nc(Nc2ccc3c(c2)CC(=O)N3)ncc1C(F)(F)F)S(C)(=O)=O (max concentration tested 10000 nM) . Could you help?
// result 3.56

// query Hello, I am looking for reported drug sensitivity score with SNK-6 (IL-2 2.5 ng/mL) for O=S(=O)(c1cccc2c(O)nccc12)N1CCCNCC1 [Hydroxyfasudil] (max concentration tested 37500 nM) . Could you help?
// result 3.39

// query Hello, I am looking for reported drug sensitivity score with SNK-6 (IL-2 2.5 ng/mL) for Cn1c(=O)c(F)c(Nc2ccc(I)cc2F)c2c(=O)n(C[C@@H](O)CO)cnc21 [TAK-733] (max concentration tested 1000 nM) . Could you help?
// result 0

// query Hello, I am looking for reported drug sensitivity score with SNK-6 (IL-2 2.5 ng/mL) for CNC(=O)c1ccc(N2C(=S)N(c3ccc(C#N)c(C(F)(F)F)c3)C(=O)C2(C)C)cc1F [Enzalutamide] (max concentration tested 10000 nM) . Could you help?
// result 4.37

// query Hello, I am looking for reported drug sensitivity score with SNK-6 (IL-2 2.5 ng/mL) for NC(=O)c1ccc(I)c([N+](=O)[O-])c1 [Iniparib] (max concentration tested 10000 nM) . Could you help?
// result 2.01

// query Hello, I am looking for reported drug sensitivity score with SNK-6 (IL-2 2.5 ng/mL) for COc1cc2ncnc(Nc3ccc(F)c(Cl)c3)c2cc1OCCCN1CCOCC1 [Gefitinib] (max concentration tested 10000 nM) . Could you help?
// result 9.38
